target-of-assay: Lysosomal acid glucosylceramidase (Homo sapiens) (UniProt P04062)
Sequence (P04062 whole entry N409S): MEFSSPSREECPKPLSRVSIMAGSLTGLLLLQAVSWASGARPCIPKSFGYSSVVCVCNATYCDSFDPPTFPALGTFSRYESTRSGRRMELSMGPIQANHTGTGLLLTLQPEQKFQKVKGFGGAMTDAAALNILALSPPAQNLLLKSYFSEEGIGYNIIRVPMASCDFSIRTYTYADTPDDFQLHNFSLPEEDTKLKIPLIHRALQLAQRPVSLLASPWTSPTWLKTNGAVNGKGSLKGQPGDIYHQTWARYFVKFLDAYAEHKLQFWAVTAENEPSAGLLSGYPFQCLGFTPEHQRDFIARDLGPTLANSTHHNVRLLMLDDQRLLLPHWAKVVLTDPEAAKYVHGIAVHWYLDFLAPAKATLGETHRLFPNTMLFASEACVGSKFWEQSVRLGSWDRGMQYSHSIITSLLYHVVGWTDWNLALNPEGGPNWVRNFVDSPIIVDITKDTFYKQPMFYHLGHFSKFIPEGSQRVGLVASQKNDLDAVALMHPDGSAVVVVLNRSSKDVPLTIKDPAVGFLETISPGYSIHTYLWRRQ
assay-procedure: qHTS Assay for Inhibitors and Activators of N370S glucocerebrosidase as a Potential Chaperone Treatment of Gaucher Disease: Purified N370S Glucocerebrosidase Confirmation for Probe SAR
condition-parameters: purified N370S GC, 4MU-glucoside fluorescence, 40 min; series mostly up to 57.5 µM
Records with an inconclusive call do not appear. The source made the active and inactive calls. Calls follow the shape of the dose curve; as a rule, active = well fitted activation curve with a large enough effect; inconclusive = small, poorly fitted or top-dose-only effect; inactive = flat fitted curve, though single readings scatter.
Allowed answers: active, inactive

# count of solved cases: 3
1. Cc1cc(C)n2ncc(C(=O)Nc3ccc(C(F)(F)F)cc3)c2n1
active
2. Cc1cc(C)n2ncc(C(=O)Nc3ccc4c(c3)OCO4)c2n1
active
3. Cc1cc(C)n2ncc(C(=O)Nc3cccc(C(F)(F)F)c3)c2n1
active

# input for lookup
Recorded call for `CNC(=O)c1cnn2c(C)cc(C)nc12` ? inactive

====

target-of-assay: Lysosomal acid glucosylceramidase (Homo sapiens) (UniProt P04062)
assay-procedure: qHTS Assay for Inhibitors and Activators of N370S glucocerebrosidase as a Potential Chaperone Treatment of Gaucher Disease: Purified N370S Glucocerebrosidase Confirmation for Probe SAR
condition-parameters: purified N370S GC, 4MU-glucoside fluorescence, 40 min; series mostly up to 57.5 µM
Records with an inconclusive call do not appear. Calls of active or inactive are those of the source. Calls come from the whole dose curve; as a rule, active = well fitted activation curve with a large enough effect; inconclusive = small, poorly fitted or top-dose-only effect; inactive = flat fitted curve, though single readings scatter.
Allowed answers: active, inactive

1. CC(=O)c1ccc(NC(=O)c2cnn3c(C)cc(C)nc23)cc1
inactive
2. Cc1cc(C)n2ncc(C(=O)Nc3ccc(Br)cc3)c2n1
active
3. Cc1cc(C)n2ncc(C(=O)Nc3ccncc3)c2n1
inactive
4. Cc1cc(C)n2ncc(C(=O)Nc3ccc(S(C)(=O)=O)cc3)c2n1
inactive

Recorded call for `C#Cc1ccc(NC(=O)c2cnn3c(C)cc(C)nc23)cc1` ? active

Recorded call for `Cc1cc(C)n2ncc(C(=O)Nc3ccccc3)c2n1` ? active

====

target-of-assay: Lysosomal acid glucosylceramidase (Homo sapiens)
assay-procedure: qHTS Assay for Inhibitors and Activators of N370S glucocerebrosidase as a Potential Chaperone Treatment of Gaucher Disease: Purified N370S Glucocerebrosidase Confirmation for Probe SAR
condition-parameters: purified N370S GC, 4MU-glucoside fluorescence, 40 min; series mostly up to 57.5 µM
Records with an inconclusive call do not appear. The source made the active and inactive calls. Calls come from the whole dose curve; as a rule, active = well fitted activation curve with a large enough effect; inconclusive = small, poorly fitted or top-dose-only effect; inactive = flat fitted curve, though single readings scatter.
This listing pairs molecules with measured Potency.

Some molecules with recorded Potency:
1) Cc1cc(C)n2ncc(C(=O)NC3CCC(C(C)(C)C)CC3)c2n1 (stereo not drawn)
7.3 µM (active)
2) COc1ccc(NC(=O)c2cnn3c(C)cc(C)nc23)cc1Cl
25.9 µM (active)
3) Cc1cc(C)n2ncc(C(=O)NCc3ccco3)c2n1
20.6 µM (active)
4) O=C(Nc1ccccc1Sc1ccccc1)c1cnn2c1NC(=C1CC1)C=C2C(F)F
16.3 µM (active)
5) Cc1cc(C)n2ncc(C(=O)NCc3ccccc3)c2n1
13 µM (active)
6) Cc1cc(C)n2ncc(C(=O)Nc3ccc4c(c3)OCCO4)c2n1
16.3 µM (active)

Summary for this molecule, `O=C(Nc1cnn(Cc2ccc(F)cc2)c1)c1cnn2c(C(F)F)cc(-c3ccccc3)nc12` : Potency is 10.3 µM (active)

Summary for this molecule, `Cc1cccc(NC(=O)c2cnn3c(C)cc(C)nc23)c1` : Potency is 18.3 µM (active)
